Exercise: for every item that follows, state its recorded phosphorylation enrichment.
molecular target: FGFR1 (UniProt P11362); assay: phosphorylation enrichment, bacterial display (enrichment ratio); higher = better substrate or ligand; peptides without Tyr show the background;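 further: 11-residue human phosphosite peptides and single-mutation variants displayed on the E. coli surface, counted by deep sequencing, each peptide's frequency after selection divided by its frequency in the unselected input library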;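 further: frequency after pTyr selection over input frequency; kinase dosed for 20-30% of maximal phosphorylation in three min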
Sequence (P11362 whole entry, looked up): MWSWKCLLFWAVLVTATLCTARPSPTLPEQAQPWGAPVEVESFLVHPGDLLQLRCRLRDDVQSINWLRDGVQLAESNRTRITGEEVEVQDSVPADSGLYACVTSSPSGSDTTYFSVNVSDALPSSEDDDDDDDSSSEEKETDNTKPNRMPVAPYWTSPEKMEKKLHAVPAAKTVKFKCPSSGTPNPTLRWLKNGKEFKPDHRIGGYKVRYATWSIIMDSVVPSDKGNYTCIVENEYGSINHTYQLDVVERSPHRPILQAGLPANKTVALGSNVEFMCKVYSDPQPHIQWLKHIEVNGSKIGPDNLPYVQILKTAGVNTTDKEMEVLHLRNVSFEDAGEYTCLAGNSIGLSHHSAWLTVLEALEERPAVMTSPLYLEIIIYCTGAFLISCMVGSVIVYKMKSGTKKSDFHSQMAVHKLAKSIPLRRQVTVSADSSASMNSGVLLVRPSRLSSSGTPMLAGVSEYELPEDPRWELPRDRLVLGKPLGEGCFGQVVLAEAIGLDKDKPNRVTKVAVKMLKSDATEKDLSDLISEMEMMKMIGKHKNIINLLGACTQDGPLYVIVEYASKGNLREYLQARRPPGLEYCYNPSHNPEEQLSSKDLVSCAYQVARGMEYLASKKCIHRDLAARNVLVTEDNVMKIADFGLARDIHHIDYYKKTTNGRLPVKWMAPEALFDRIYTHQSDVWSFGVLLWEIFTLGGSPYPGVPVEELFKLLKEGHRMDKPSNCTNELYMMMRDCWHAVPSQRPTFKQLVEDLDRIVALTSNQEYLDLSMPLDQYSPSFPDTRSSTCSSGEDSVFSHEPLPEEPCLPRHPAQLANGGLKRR
Lab note: write the figure by itself, no unit.

Look at this sequence and give its reported phosphorylation enrichment. SDFSRYARTSI [TERT_Y949_S948R_YF]
0.48

Same thing, different sequence: QPGDIYHQTWA [GBA_Y244]
3.42

Same thing, different sequence: FADIAYNFRHR [PAH_Y166_G171R_YF]
0.317

Same thing, different sequence: NGPDVYVLPVT [AATK_Y93_L97V]
0.72

Same thing, different sequence: VEYAKYGSLQG [RET_Y809_R813Q]
0.549

Same thing, different sequence: TEALFYTDDPA [ADPRS_Y75_T79P_YF]
0.734

Same thing, different sequence: KFLENYLNRLL [PLD2_Y169_YF]
0.499

Same thing, different sequence: SFGESYDNSKS [MAN1B1_Y60_N59S]
0.493

Same thing, different sequence: GDFFRSLAEVA [YWHAG_Y133_Y133S_YF]
0.486

Same thing, different sequence: GSERDYTFDEL [EIF2S2_Y174_E177D_YF]
0.583

Same thing, different sequence: KVKSIYFHTQG [AR_Y916_P914S]
0.414

Same thing, different sequence: EDASEYFENYI [PARP4_Y214]
0.84

Same thing, different sequence: KNCFKYYMSDD [ATRX_Y203]
0.547

Same thing, different sequence: NPQKSYFIRLY [WAS_Y83]
0.486

Same thing, different sequence: NTADFYDLFGG [PTPN11_Y63_G60A_YF]
0.515

Same thing, different sequence: HLQDEYDFKCK [STAT1_Y170_D165H]
0.581

Same thing, different sequence: CHSDDYVHISI [TSC1_Y406_L411I]
1.65

Same thing, different sequence: PLDGEYFTPQI [TP53_Y327_L330P]
3.09

Same thing, different sequence: KAPPTYDTVLQ [CYP3A4_Y347]
0.36

Same thing, different sequence: PRAEWYRDDLL [MYOM2_Y317_V321L]
0.591

Same thing, different sequence: IVFTSYFLTIL [TAS2R16_Y239]
0.641

Same thing, different sequence: ITNVLYHVVGW [GBA_Y412_L410V]
6.43

Same thing, different sequence: DDKEYYSVHNK [MET_Y1235_Y1230D]
1.6

Same thing, different sequence: QNTGDYCDLFG [PTPN11_Y62_Y63C_YF]
5.82

Same thing, different sequence: VVDVTYDDVPI [FLNB_Y1308_E1305D]
0.506

Same thing, different sequence: QAPPIYLDVLG [NTRK1_Y791_V790I]
3.35

Same thing, different sequence: EYGFRYELVQY [UGGT2_Y1289]
0.872

Same thing, different sequence: WHHTFYNELRV [ACTA1_Y93]
0.552

Same thing, different sequence: YEEDSYSHIMA [FDPS_Y388]
1.35

###

target: FGFR1 (UniProt P11362); test: phosphorylation enrichment, bacterial display (enrichment ratio); higher = better substrate or ligand; peptides without Tyr show the background
Exercise: for every item that follows, state its recorded phosphorylation enrichment.

Look at this sequence and give its reported phosphorylation enrichment. DFKIIYIVPMR [SNRNP200_Y540_A542V]
0.55

Same thing, different sequence: GIVEDYRPTFY [ACVRL1_Y421_P424T]
0.441

Same thing, different sequence: LNPLIYTLRNA [OR4C46_Y285_K288R]
0.922

Same thing, different sequence: LAVGDYMRRQK [ATM_Y1915_V1913G]
0.437

Same thing, different sequence: NTYEKYLEEEY [TF_Y669_G671E]
0.553

Same thing, different sequence: VRSNHYDPEED [TJP1_Y1346]
0.66

Same thing, different sequence: LNPDGYEKAFE [CPXM2_Y427_YF]
0.769

Same thing, different sequence: ILGLEYSLRVP [HELZ2_Y1304]
0.573

Same thing, different sequence: EGWQVYRLGTR [MISP_Y95_A99T]
0.44

Same thing, different sequence: IQTDGYRAPEA [UHMK1_Y197]
0.447

Same thing, different sequence: MEVGQYFFVKC [CYBB_Y324_I325F]
4.99

Same thing, different sequence: DASAVYLRDFQ [PLCG2_Y242_H244R]
0.425

Same thing, different sequence: LHQSTYQRYDV [SLC7A14_Y693]
0.236

Same thing, different sequence: ECKETYHEGEC [PRKN_Y372_A371T]
0.721

Same thing, different sequence: REAMEYLESKQ [BTK_Y511_C506R]
0.754

Same thing, different sequence: RGSQQYRALTV [TUBB8_Y281]
0.428

Same thing, different sequence: KFEDVYVRICL [B3GALNT1_Y269_G271R]
0.512

Same thing, different sequence: MDFRSYPREFG [RBM10_Y44_YF]
0.529

Same thing, different sequence: VIEQRYNETWL [SLC2A4_Y56_S55R]
0.516

Same thing, different sequence: SLESAYPEGSQ [TTF1_Y357]
0.61

Same thing, different sequence: SSTAMYSAAGR [PSMB1_Y8_P11A]
0.512

Same thing, different sequence: NYRPGYNNFYN [USH2A_Y467]
0.637

Same thing, different sequence: YNNYGYGNDGF [HNRNPH3_Y161]
0.766

Same thing, different sequence: MARDIYQASFF [LTK_Y672_R673Q_YF]
0.679

Same thing, different sequence: SVTCTYSPALD [TP53_Y126_N131D]
0.616

Same thing, different sequence: RPGSGYTNIMR [PKLR_Y564]
0.439

Same thing, different sequence: VEDHFYEGGIG [TKT_Y564_YF]
0.58

Same thing, different sequence: TLARLYHPDST [LRIG1_Y1029]
0.344

Same thing, different sequence: RRIHSYRGHLW [VHL_Y112]
2.16

Same thing, different sequence: GPKSTYISSAG [GOLGA5_Y62_A67G]
0.326

Same thing, different sequence: NTVLGYFIGCI [GARS1_Y408_R412C]
0.457

Same thing, different sequence: KALKQYRASPS [DDX27_Y763_G766S]
0.328

Same thing, different sequence: KDAGDYKYKAK [LRIT3_Y326_C328Y]
0.337

Same thing, different sequence: SENAFYLSPHI [COL6A3_Y2827_D2831H]
0.653

Same thing, different sequence: TKDTIYKQPMF [GBA_Y451_F450I]
0.406

Same thing, different sequence: ASIVDYNIIGW [MYH7_Y588_G584S]
0.948

Same thing, different sequence: LWEGSYGKVKE [STK11_Y60_G56W]
0.587

Same thing, different sequence: GIYSGYDDAWD [POLR1C_Y36_N32I]
0.568

Same thing, different sequence: SVTCTYSPAPN [TP53_Y126_L130P]
0.495

Same thing, different sequence: TDHLRYFDSNK [ARAP1_Y359]
0.414

Same thing, different sequence: YTNELYMMMRD [FGFR1_Y730_C725Y]
2.52

Same thing, different sequence: IALSKYGRVKR [FGF6_Y186]
0.359

Same thing, different sequence: RRSQSYNPTSG [PLEKHA2_Y185_I186N]
0.649

Same thing, different sequence: RLPNGYGLAYR [DLK1_Y262_S260N]
0.663

Same thing, different sequence: HRLSTYTKMLF [CHST8_Y251]
0.428

Same thing, different sequence: WHHTFYNELCV [ACTC1_Y93_R97C]
0.881

Same thing, different sequence: QIGRKYKKVRF [F8_Y442_R437Q]
0.807

Same thing, different sequence: GMAHNYRNSSQ [AASS_Y188]
0.371

Same thing, different sequence: FHLLPYTVRAM [PARS2_Y93_YF]
0.564

Same thing, different sequence: KSAAIYNPVIY [RHO_Y301]
1.41

Same thing, different sequence: ENEGTYVCIAA [ADAMTSL3_Y1365_T1370A]
1.53

Same thing, different sequence: VIESSYQVAKA [CPT1B_Y534]
0.489

Same thing, different sequence: FARNCYVAGQF [G6PD_Y107_S106C_YF]
0.461

Same thing, different sequence: VKANTYENFWP [GATM_Y100_K102N_YF]
0.415

Same thing, different sequence: PSAELYSFALP [PDGFRB_Y716_N718Y_YF]
6.2

Same thing, different sequence: RMGNLYDIDEN [GRIN2A_Y1246_D1251N]
0.876

Same thing, different sequence: DIMDLYNQPEP [IL36A_Y96]
0.491
